Biological target: SHP2 (Avi-G4SG4S-PTPN11(1-525)) (Homo sapiens, UniProt Q06124)
Construct: (Avi-G4SG4S-PTPN11(1-525)); purchased Viva Biotech Ltd
Sequence (Q06124 1-525): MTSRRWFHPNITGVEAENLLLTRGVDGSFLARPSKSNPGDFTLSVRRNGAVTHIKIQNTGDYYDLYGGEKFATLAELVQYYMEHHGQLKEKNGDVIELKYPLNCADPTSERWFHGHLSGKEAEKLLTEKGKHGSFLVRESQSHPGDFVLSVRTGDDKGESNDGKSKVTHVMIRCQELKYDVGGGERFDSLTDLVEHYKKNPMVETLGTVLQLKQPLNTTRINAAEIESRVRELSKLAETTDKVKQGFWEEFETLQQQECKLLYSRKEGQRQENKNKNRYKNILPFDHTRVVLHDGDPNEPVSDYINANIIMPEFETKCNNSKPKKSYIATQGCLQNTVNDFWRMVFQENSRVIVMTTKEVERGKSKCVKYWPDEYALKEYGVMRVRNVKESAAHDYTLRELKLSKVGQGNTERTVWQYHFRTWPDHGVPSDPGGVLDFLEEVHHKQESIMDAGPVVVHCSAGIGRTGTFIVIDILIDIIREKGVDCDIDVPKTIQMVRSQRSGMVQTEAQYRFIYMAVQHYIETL
Assay: Binding kinetic assay by surface plasmon resonance (SPR)
Conditions: Biacore T200, single cycle kinetic, 1:1 Langmuir binding model
Examples of compounds with documented Residence time 1/koff SPR follow.
Report as a plain number; the unit s is understood.

Field: example entries. Status: answers known.
{"columns": ["smiles_input", "unit_text", "Residence time 1/koff SPR"],
 "data": [
  ["Nc1nccc(Sc2cnc(N3CCC4(CC3)Cn3nccc3[C@H]4N)cn2)c1Cl", "s", 2740],
  ["Nc1nccc(Sc2cnc(N3CCC4(CC3)Cn3ncc(Cl)c3[C@H]4N)cn2)c1Cl", "s", 3185],
  ["Cn1cc2c(Cl)c(Sc3cnc(N4CCC5(CC4)Cn4nccc4[C@H]5N)n4ccnc34)ccc2n1", "s", 16026],
  ["Nc1nc(N2CCC3(CC2)Cn2ncc(Cl)c2[C@H]3N)cnc1Sc1ccnc(N)c1Cl", "s", 17007],
  ["Cc1cc2n(n1)CC1(CCN(c3ncc(Sc4ccnc(N)c4Cl)n4cncc34)CC1)[C@@H]2N", "s", 6536]
]}

q: Request - read-out Residence time 1/koff SPR | tested on SHP2 (Avi-G4SG4S-PTPN11(1-525)) (Homo sapiens, UniProt Q06124) | compound "Cc1cc2n(n1)CC1(CCN(c3cnc(Sc4ccnc(N)c4Cl)cn3)CC1)[C@@H]2N"
a: 29412
